# System: Cavia porcellus
# testSummary: Ex vivo inhibition of ADP induced guinea pig platelet aggregation following 0.08 mmol/kg administration.
# Type: functional
quantityMeasured: Activity
// return just the number, without any unit appended

Here are 4 molecules together with their reported answers.
O=c1c2ccccc2sn1CCCN1CCCC1    2
O=c1c2ccccc2sn1CCCCN1CCCCC1    1.1
COc1cc2sn(CCCN3CC4CCC(CC4)C3)c(=O)c2cc1OC    0.9
O=c1c2ccccc2sn1CCCN1CCOCC1    1.3

Problem: Request - read-out Activity | tested on Cavia porcellus | molecule O=c1c2ccccc2sn1CCCCCN1CCCCC1
Solution: 1.3

Problem: // fetch Cavia porcellus Activity for O=c1c2ccccc2sn1CCCCCN1CC2CCC(CC2)C1
Solution: 1.2
